test system: Leucine-rich repeat serine/threonine-protein kinase 2 (Homo sapiens), Q5S007 [G2019S]; details: at 1 µM
Sequence (Q5S007 whole entry G2019S): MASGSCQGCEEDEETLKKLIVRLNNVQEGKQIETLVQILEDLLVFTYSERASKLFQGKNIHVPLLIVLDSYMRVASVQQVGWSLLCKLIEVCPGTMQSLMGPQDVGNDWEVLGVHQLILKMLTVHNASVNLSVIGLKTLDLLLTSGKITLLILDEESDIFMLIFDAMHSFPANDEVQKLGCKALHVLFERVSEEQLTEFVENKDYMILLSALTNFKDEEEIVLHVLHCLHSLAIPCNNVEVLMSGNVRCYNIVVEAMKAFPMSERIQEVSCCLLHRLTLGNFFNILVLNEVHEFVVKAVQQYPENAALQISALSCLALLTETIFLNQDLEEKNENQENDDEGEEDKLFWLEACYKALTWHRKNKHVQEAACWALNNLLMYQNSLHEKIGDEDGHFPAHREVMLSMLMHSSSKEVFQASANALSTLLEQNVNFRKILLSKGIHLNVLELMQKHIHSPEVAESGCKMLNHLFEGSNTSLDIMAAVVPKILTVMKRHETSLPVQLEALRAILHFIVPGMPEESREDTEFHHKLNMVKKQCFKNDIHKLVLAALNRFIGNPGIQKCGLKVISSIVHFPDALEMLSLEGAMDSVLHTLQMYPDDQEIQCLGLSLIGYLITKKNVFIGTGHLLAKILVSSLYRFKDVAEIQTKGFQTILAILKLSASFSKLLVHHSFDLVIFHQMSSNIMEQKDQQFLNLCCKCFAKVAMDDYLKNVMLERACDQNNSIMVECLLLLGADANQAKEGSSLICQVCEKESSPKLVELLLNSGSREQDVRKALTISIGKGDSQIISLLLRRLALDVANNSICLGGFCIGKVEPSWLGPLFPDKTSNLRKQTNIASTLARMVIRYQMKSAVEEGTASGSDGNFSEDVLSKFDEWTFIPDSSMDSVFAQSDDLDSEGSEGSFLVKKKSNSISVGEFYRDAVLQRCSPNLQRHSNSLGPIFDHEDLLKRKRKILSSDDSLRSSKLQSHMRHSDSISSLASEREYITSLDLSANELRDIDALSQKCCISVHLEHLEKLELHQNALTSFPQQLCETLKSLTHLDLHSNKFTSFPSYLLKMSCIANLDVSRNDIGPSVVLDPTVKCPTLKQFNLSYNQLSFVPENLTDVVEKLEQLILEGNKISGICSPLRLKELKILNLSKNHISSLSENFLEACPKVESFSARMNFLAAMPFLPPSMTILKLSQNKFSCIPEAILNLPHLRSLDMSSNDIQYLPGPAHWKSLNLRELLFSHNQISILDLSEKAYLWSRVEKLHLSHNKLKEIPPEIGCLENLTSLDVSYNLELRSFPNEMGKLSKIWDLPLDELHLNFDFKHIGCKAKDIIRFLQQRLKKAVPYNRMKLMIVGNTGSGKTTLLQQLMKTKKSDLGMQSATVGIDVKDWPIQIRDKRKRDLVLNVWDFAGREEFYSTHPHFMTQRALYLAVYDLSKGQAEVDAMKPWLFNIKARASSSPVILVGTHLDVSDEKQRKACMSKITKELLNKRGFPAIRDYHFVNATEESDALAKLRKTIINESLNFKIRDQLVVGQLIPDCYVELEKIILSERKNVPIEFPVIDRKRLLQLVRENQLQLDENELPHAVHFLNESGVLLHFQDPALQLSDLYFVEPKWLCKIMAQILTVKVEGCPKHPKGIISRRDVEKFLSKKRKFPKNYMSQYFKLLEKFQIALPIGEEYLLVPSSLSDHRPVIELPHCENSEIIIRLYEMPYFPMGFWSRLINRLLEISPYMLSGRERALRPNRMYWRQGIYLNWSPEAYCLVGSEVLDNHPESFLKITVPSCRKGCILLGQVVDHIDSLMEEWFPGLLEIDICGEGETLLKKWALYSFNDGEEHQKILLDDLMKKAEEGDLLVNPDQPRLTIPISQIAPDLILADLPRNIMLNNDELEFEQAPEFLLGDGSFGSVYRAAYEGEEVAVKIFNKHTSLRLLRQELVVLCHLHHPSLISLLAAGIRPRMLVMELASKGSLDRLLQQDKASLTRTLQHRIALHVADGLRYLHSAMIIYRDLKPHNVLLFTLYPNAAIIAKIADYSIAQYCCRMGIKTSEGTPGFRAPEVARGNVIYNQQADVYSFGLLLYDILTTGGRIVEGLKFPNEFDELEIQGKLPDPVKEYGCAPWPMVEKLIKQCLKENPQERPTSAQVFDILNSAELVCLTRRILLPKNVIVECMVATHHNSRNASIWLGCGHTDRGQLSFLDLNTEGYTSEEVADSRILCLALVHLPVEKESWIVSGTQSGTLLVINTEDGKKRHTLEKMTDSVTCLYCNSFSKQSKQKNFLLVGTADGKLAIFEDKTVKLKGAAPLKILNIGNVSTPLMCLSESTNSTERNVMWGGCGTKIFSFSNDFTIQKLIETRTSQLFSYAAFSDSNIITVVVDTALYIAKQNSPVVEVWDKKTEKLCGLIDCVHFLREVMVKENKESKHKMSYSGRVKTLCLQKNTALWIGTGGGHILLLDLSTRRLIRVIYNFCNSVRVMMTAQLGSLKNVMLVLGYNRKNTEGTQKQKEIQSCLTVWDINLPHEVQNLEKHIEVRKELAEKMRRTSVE
Tag: y if measured inhibition is not below 7%, n if it is.

Hello, I need to know if `Fc1ccc(-c2nn3ccccc3c2-c2ccncc2)cc1` has measured inhibition not below 7%. Thanks!
n

Given the entry `O=C(O[C@H]1CN[C@H](C#Cc2cc3ncnc(Nc4ccc(Cc5ccccc5)cc4)c3s2)C1)N1CCOCC1` , answer whether its inhibition meets or surpasses 7%.
n

Has `CCCN(CCS(C)(=O)=O)Cc1ccc(-c2ccc3ncnc(Nc4ccc(OCc5cccc(F)c5)c(Cl)c4)c3c2)o1` a recorded inhibition greater than or equal to 7%?
n

Dear colleague, could you confirm whether `CC(=O)Nc1cccc(C#Cc2cncnc2Nc2ccc(OCc3cccc(F)c3)c(Cl)c2)c1` has inhibition at or above 7%?
y

# bool: inhibition of `[O-][S+]1CCN(Cc2ccc(-c3ccc4ncnc(Nc5ccc(OCc6cccc(F)c6)c(Cl)c5)c4c3)o2)CC1` >= 7%
y

Exam item: decide whether the reported inhibition for `CCN(CC)S(=O)(=O)c1ccc(OC)c(Nc2ncc(-c3ccccc3)o2)c1` is at least 7%.
y

Is inhibition at least 7%? Consider `COc1cc2ncn(-c3cc(OCc4ccccc4C(F)(F)F)c(C(=O)N(C)C)s3)c2cc1OC`
y

# bool: inhibition of `Fc1ccc(-c2nn3ncccc3c2-c2ccnc(Nc3ccc4c(c3)OCCO4)n2)cc1` >= 7%
n

Is reported inhibition greater than or equal to 7% here: `c1ccc(COc2ccc(Nc3ncnc4ccc(-c5ccco5)cc34)cc2)cc1`
n

Check if inhibition >= 7% (inclusive). Item: `COc1cccc(-c2c[nH]c3c(N/N=C/c4ccncc4)ncnc23)c1`
y

Would you say `CCCN1CCC(c2ccc(Nc3nc(Nc4cc(F)ccc4C(N)=O)c4cc[nH]c4n3)c(OC)c2)CC1` shows inhibition at minimum 7%?
y

Reported inhibition reaches at least 7% for `Fc1cccc(COc2ccc(Nc3ncnc4sc(-c5ccco5)cc34)cc2Cl)c1` ?
y

hey, is inhibition for this one >= 7%? `CS(=O)(=O)CCNCc1ccc(-c2ccc3ncnc(Nc4ccc(OCc5ccccc5)c(C(F)(F)F)c4)c3c2)o1`
n

Does the compound `COc1cc(N2CCN(C(C)C)CC2)ccc1Nc1nc(Nc2ccc(F)cc2C(N)=O)c2cc[nH]c2n1` have recorded inhibition that is 7% or more?
y

Determine whether this compound has inhibition no lower than 7%: `Cc1ccc(O)cc1Nc1ccnc2cc(-c3ccccn3)ccc12`
y

Given `CC(C)(CO)CNC(=O)c1ccc2c(c1)/C(=N/Nc1ccc(S(N)(=O)=O)cc1)C(=O)N2` , state whether its inhibition is at least 7%.
y

// inclusive: inhibition at least 7%? input: `CCN1CCC(CC(=O)Nc2n[nH]c3nnc(-c4cccc(F)c4F)cc23)CC1`
n

Reported inhibition at or above 7%? `COC(=O)c1sc(-n2cnc3cc(OC)c(OC)cc32)cc1OCc1ccccc1C(F)(F)F`
y

Does the reported inhibition for `CN1CCC(n2cnc(-c3ccc(F)cc3)c2-c2ccnc(N)n2)CC1` fall at or above the 7% mark?
y

====

Record form. Attribute: inhibition. Fill in for each entry.
test system: Epidermal growth factor receptor (Homo sapiens), P00533 [T790M]; conditions: at 1 µM
Sequence (P00533 whole entry T790M): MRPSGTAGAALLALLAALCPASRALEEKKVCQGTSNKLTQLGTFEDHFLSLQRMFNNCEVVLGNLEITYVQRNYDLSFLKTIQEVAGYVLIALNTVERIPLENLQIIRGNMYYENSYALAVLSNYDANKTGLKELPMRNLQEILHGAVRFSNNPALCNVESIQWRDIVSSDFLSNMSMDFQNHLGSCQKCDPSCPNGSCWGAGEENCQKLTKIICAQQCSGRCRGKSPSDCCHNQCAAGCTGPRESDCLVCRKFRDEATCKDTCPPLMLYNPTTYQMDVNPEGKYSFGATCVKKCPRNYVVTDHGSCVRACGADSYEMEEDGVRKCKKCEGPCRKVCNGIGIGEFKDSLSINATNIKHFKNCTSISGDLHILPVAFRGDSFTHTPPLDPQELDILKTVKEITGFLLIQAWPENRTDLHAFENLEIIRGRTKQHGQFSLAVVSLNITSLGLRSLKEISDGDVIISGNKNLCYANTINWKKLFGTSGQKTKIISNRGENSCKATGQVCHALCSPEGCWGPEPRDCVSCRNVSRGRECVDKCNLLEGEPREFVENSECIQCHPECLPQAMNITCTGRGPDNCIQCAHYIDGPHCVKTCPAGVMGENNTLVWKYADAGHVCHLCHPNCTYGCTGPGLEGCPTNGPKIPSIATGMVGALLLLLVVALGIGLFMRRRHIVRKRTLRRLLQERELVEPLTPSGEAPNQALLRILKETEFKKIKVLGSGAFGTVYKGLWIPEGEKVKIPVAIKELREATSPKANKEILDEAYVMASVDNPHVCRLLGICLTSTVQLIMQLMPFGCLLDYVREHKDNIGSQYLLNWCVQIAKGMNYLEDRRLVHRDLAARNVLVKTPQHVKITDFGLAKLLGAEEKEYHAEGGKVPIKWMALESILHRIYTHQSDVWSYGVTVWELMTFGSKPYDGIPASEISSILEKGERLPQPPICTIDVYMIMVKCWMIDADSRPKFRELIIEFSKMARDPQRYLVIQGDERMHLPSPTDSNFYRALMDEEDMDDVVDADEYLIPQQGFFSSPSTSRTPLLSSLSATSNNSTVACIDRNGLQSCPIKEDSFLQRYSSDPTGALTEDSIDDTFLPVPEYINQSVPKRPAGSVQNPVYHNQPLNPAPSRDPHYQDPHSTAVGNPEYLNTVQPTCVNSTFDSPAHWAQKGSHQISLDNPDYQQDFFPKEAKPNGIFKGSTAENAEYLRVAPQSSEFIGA
Form entry: value (%) — number only.

# return recorded inhibition for input `COC(=O)Nc1nc2ccc(S(=O)(=O)c3ccc(NC(=O)Nc4cc(C(F)(F)F)ccc4F)cc3)cc2[nH]1`
0.19

Check the records and state inhibition for `COc1cc(/C=N/Nc2ncnc3[nH]ncc23)ccc1O`
4.2

Return value of inhibition for input `CCn1cc(-c2ccnc3[nH]ccc23)c(-c2cccc(NC(=O)Nc3ccc(OCc4ccccc4)cc3)c2)n1` , no commentary.
-1.25

For the molecule `NC(=O)c1sc(-n2cnc3ccc(C(F)(F)F)cc32)cc1OCc1ccccc1Br` , give its measured inhibition value.
4.07

Output measured inhibition for this item: `CCn1c(-c2nonc2N)nc2c(C#CC(C)(C)O)nc(OC[C@H](N)c3ccccc3)cc21`
4.71

// Input: `O=C(O[C@H]1CN[C@H](C#Cc2cc3ncnc(Nc4ccc(Cc5ccccc5)cc4)c3s2)C1)N1CCOCC1` . Output its inhibition only.
10.5

Note down inhibition recorded for `CCc1nn2ncccc2c1-c1ccnc(NC2CC2)n1`
1.56

Provide one value: measured inhibition of `COc1ccc(CNC(=O)c2ccc(-c3cc(-c4nnc(C)o4)ccc3C)cc2)cc1`
5.47
